study-system: T1, human activated protein C (human, UniProt P04070 43-197; P04070 212-461)
T1 construct: also called human aPC; human APC
assay-details: SPR (Biacore), 1:1 binding model
Kd vs 5 nM: less than gives t; not less than gives f.

- binder: "1573 Chimeric (antibody, V domains shown, IgG; also called chimera 1573; 1573VH (chimeric) + 1573Vk (chimeric)) VH: EVKLEESGGGLVQPGGSMKLSCVASGFTFSNYYLNWVRQSPEKGLEWVADIRLKSNNYEKHYAESVKGRFTISRDDSKSSVYLQMNNLRAEDTGIYYCIREGDYFDYWGQGTTLTVSS VL: NIVLTQSPASLAVSLGQRATISCRASESVDSFGATFMHWYQQKPGQPPKLLIYLASNLESGVPARFSGSGSRTDFTLTIDPVEADDAATYYCQQNNEDPYTFGGGTKLEIKR"
  class: "t"
- binder: "Hu1573-16 (antibody, V domains shown, Humanized IgG, human gamma 1 / kappa constant regions by vectors pCP-hCg1 and pCP-hck; also called H1573VH.1F + H1573Vk.2A) VH: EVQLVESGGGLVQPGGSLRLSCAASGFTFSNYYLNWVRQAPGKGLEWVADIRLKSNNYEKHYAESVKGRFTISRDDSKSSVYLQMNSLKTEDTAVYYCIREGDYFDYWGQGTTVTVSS VL: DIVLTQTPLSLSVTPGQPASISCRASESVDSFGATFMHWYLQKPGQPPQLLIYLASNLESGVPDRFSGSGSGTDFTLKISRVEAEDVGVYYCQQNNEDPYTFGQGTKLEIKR"
  class: "t"
- binder: "Hu1573-14 (antibody, V domains shown, Humanized IgG, human gamma 1 / kappa constant regions by vectors pCP-hCg1 and pCP-hck; also called H1573VH.1E + H1573Vk.2B) VH: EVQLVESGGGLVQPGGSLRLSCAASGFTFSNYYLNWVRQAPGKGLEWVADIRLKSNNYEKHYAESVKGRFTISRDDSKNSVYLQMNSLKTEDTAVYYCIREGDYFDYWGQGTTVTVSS VL: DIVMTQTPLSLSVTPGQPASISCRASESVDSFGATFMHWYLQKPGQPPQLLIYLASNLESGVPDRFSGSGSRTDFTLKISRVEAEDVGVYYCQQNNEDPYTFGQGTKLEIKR"
  class: "f"
- binder: "Hu1573-5 (antibody, V domains shown, Humanized IgG, human gamma 1 / kappa constant regions by vectors pCP-hCg1 and pCP-hck; also called H1573VH.1B + H1573Vk.2B) VH: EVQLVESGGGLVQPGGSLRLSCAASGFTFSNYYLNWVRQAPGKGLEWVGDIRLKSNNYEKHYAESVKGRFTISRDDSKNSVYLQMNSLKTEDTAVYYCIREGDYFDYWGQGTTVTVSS VL: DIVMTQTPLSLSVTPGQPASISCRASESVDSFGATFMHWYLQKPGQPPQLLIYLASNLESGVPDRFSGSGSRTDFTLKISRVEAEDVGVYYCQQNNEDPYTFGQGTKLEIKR"
  class: "t"

Query block: Check if Kd falls below 5 nM for Hu1573-13 (antibody, V domains shown, Humanized IgG, human gamma 1 / kappa constant regions by vectors pCP-hCg1 and pCP-hck; also called H1573VH.1E + H1573Vk.2A) VH: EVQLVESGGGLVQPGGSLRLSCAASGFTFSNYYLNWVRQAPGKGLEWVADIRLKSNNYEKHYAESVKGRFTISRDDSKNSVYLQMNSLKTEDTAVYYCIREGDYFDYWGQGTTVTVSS VL: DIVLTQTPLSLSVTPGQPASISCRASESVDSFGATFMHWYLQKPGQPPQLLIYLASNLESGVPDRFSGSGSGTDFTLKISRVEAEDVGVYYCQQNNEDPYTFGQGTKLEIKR .
Result block: t

Origin of measurements: patent USRE49099
